Data origin: paper PMC6407917

Target: UniProtKB P17252
Experiment: biochemical
Set-up: species or system HEK293/K-562/placenta mixed human extract; Kinobeads chemoproteomic competition binding, quantified by TMT LC-MS/MS, dose response up to 20 uM
pIC50: −log10 of the molar value.
quantity.measured: pIC50

Read off the recorded pIC50 for "COc1nc(N[C@H]2CC[C@H](NS(=O)(=O)CC(C)C)CC2)nc2[nH]nc(N3CCOC[C@H]3C)c12"
≤ 4.70

* * *

Target: PRKCQ (Homo sapiens)
Experiment: biochemical
Design: species or system HEK293/K-562/placenta mixed human extract; Kinobeads chemoproteomic competition binding, quantified by TMT LC-MS/MS, dose response up to 20 uM
pIC50: −log10 of the molar value.
quantity.measured: pIC50

Read off the recorded pIC50 for "COc1nc(N[C@H]2CC[C@H](NS(=O)(=O)CC(C)C)CC2)nc2[nH]nc(N3CCOC[C@H]3C)c12"
≤ 4.70

* * *

Biological target: CAMK2D (Homo sapiens)
Sequence (Q13557 whole entry): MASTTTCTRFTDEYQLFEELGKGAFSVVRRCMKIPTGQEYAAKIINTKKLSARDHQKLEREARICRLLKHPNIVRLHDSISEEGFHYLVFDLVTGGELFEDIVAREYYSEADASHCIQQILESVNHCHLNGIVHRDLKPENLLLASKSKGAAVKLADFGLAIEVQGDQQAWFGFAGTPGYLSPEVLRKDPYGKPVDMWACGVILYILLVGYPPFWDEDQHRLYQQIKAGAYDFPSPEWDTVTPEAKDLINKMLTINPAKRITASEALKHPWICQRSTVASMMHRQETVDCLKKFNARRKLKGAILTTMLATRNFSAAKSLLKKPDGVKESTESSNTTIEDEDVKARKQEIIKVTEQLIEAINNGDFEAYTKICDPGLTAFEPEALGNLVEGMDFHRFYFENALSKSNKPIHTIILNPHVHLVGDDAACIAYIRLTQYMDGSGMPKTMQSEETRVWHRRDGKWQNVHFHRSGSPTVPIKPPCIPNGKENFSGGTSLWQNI
Experiment: biochemical
Set-up: species or system HEK293/K-562/placenta mixed human extract; Kinobeads chemoproteomic competition binding, quantified by TMT LC-MS/MS, dose response up to 20 uM
pIC50: −log10 of the molar value.
quantity.measured: pIC50

Enter measured pIC50, system CAMK2D (Homo sapiens), for the compound shown: "COc1nc(N[C@H]2CC[C@H](NS(=O)(=O)CC(C)C)CC2)nc2[nH]nc(N3CCOC[C@H]3C)c12"
≤ 4.70

* * *

Molecular target: TAOK2 (Homo sapiens)
Sequence (Q9UL54 whole entry): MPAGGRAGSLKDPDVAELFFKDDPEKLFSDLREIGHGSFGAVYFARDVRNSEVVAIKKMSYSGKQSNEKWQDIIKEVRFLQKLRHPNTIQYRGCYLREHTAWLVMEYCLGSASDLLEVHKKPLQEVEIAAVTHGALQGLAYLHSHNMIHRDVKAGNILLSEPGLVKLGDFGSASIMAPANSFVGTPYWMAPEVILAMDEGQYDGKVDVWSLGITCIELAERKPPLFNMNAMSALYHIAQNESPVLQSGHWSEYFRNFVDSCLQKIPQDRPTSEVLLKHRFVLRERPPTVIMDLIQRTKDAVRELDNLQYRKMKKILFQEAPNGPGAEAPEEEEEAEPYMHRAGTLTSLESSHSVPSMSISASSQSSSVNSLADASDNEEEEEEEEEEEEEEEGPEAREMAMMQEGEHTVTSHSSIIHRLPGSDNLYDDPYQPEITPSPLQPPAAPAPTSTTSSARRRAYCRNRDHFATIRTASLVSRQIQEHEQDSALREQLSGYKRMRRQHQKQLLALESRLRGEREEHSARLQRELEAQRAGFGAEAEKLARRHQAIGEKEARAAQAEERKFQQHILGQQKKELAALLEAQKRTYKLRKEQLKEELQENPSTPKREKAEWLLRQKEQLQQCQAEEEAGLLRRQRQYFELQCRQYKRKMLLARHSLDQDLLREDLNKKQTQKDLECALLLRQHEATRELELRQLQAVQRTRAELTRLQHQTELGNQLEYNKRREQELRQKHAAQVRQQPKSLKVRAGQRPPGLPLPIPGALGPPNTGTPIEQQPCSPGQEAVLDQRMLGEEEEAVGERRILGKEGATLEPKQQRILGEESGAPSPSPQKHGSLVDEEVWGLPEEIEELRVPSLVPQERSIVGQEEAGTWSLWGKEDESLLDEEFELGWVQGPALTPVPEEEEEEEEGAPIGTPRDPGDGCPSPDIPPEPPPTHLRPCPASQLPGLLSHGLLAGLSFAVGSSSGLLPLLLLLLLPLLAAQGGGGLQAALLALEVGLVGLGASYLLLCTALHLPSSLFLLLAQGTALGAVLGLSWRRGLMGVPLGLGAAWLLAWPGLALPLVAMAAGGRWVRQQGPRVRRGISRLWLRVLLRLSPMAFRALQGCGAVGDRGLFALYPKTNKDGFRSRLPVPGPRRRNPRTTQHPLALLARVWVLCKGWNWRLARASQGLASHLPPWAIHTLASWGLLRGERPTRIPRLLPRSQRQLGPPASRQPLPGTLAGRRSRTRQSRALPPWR
Assay: biochemical
Parameters: species or system HEK293/K-562/placenta mixed human extract; Kinobeads chemoproteomic competition binding, quantified by TMT LC-MS/MS, dose response up to 20 uM
quantity.measured: IC50
Record the result as a number with its unit.

Read off the recorded IC50 for COc1ccccc1-c1n[nH]c2nc(N[C@H]3CC[C@H](NS(=O)(=O)CCC(F)(F)F)CC3)nc(OC)c12 [compound 31]
5.2 µM

* * *

Biological target: UniProt P17252
Experiment: biochemical
Design: species or system HEK293/K-562/placenta mixed human extract; Kinobeads chemoproteomic competition binding, quantified by TMT LC-MS/MS, dose response up to 20 uM
quantity.measured: IC50

Read off the recorded IC50 for COc1ccccc1-c1n[nH]c2nc(N[C@H]3CC[C@H](NS(=O)(=O)CCC(F)(F)F)CC3)nc(OC)c12 [compound 31]
≥ 20 µM

* * *

Target: PRKD3 (Homo sapiens)
Assay: biochemical
Set-up: species or system HEK293/K-562/placenta mixed human extract; Kinobeads chemoproteomic competition binding, quantified by TMT LC-MS/MS, dose response up to 20 uM
quantity.measured: IC50

Read off the recorded IC50 for COc1ccccc1-c1n[nH]c2nc(N[C@H]3CC[C@H](NS(=O)(=O)CCC(F)(F)F)CC3)nc(OC)c12 [compound 31]
≥ 20 µM

* * *

Target: UniProt:P49674
Sequence (P49674 whole entry): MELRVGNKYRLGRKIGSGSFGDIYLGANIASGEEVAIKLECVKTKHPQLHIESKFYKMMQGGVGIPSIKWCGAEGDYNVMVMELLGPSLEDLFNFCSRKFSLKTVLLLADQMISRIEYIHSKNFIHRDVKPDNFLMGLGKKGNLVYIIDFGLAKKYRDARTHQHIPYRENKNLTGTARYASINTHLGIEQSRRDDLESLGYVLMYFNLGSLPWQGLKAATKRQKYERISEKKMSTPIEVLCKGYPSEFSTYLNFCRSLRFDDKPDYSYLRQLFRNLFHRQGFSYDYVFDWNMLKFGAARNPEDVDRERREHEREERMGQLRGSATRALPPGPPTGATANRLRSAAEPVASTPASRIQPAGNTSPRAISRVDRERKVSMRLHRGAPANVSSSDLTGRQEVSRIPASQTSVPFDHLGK
Test: biochemical
Set-up: species or system HEK293/K-562/placenta mixed human extract; Kinobeads chemoproteomic competition binding, quantified by TMT LC-MS/MS, dose response up to 20 uM
quantity.measured: IC50 (µM)
State just the number; it will be interpreted in µM.

Read off the recorded IC50 for "COc1ccccc1-c1n[nH]c2nc(N[C@H]3CC[C@H](NS(=O)(=O)CCC(F)(F)F)CC3)nc(OC)c12"
7.7

* * *

Target: DDR2 (Homo sapiens)
Sequence (Q16832 whole entry): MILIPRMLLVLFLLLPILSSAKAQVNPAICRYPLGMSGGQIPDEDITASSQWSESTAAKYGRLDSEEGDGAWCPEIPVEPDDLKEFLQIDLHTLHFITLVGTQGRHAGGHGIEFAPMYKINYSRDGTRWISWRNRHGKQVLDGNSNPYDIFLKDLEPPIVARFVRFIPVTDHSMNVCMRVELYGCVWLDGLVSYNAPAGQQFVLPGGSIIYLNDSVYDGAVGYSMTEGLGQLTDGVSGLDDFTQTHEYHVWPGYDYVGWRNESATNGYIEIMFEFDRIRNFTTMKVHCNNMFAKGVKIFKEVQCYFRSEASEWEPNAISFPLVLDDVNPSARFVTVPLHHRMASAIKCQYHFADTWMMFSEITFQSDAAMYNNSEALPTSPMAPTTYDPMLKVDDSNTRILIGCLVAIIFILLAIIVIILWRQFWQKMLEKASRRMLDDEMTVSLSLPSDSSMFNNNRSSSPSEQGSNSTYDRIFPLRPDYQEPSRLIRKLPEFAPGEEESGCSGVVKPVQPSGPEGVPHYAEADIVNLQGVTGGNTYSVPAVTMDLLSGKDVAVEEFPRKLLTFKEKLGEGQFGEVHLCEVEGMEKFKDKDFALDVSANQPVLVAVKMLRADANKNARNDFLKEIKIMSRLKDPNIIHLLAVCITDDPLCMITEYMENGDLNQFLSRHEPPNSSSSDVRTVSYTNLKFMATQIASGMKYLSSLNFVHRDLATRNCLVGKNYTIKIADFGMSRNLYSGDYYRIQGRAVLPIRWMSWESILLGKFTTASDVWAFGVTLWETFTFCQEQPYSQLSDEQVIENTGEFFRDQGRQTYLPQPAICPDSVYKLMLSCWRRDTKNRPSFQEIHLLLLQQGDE
Experiment: biochemical
Design: species or system HEK293/K-562/placenta mixed human extract; Kinobeads chemoproteomic competition binding, quantified by TMT LC-MS/MS, dose response up to 20 uM
quantity.measured: IC50

Read off the recorded IC50 for COc1ccccc1-c1n[nH]c2nc(N[C@H]3CC[C@H](NS(=O)(=O)CCC(F)(F)F)CC3)nc(OC)c12 [compound 31]
≥ 20 µM

* * *

Molecular target: ULK1 (Homo sapiens, UniProt O75385)
Sequence (O75385 whole entry): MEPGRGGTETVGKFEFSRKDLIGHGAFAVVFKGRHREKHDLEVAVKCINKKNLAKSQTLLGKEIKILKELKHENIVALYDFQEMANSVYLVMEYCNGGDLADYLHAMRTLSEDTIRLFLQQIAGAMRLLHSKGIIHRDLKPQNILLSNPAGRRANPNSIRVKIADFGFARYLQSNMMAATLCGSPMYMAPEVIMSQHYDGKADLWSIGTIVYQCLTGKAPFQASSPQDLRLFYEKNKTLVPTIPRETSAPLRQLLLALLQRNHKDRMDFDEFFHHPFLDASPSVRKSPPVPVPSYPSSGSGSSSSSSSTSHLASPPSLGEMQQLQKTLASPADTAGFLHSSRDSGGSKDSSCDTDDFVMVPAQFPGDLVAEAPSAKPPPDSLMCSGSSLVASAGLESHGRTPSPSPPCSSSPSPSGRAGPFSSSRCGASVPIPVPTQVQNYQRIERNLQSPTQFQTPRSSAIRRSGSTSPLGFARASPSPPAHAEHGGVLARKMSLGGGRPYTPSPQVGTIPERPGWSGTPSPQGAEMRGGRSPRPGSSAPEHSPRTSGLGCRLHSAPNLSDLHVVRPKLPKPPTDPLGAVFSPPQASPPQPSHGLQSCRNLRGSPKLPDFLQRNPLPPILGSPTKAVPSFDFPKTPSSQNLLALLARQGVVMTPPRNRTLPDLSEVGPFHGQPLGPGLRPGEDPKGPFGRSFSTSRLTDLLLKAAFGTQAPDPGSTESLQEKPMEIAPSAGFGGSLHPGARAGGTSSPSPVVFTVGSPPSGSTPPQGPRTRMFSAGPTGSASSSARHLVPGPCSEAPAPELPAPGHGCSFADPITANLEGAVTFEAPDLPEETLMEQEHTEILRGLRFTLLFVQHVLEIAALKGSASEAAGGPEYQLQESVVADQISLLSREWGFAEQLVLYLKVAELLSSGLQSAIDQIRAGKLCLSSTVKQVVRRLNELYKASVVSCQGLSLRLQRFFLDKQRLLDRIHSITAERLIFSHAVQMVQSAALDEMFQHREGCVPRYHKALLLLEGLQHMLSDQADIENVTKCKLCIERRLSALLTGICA
Assay: biochemical
Design: species or system HEK293/K-562/placenta mixed human extract; Kinobeads chemoproteomic competition binding, quantified by TMT LC-MS/MS, dose response up to 20 uM
quantity.measured: IC50

Read off the recorded IC50 for "COc1ccccc1-c1n[nH]c2nc(N[C@H]3CC[C@H](NS(=O)(=O)CCC(F)(F)F)CC3)nc(OC)c12"
≥ 20 µM

* * *

Molecular target: EPHB6 (Homo sapiens, UniProt O15197)
Sequence (O15197 1-1021): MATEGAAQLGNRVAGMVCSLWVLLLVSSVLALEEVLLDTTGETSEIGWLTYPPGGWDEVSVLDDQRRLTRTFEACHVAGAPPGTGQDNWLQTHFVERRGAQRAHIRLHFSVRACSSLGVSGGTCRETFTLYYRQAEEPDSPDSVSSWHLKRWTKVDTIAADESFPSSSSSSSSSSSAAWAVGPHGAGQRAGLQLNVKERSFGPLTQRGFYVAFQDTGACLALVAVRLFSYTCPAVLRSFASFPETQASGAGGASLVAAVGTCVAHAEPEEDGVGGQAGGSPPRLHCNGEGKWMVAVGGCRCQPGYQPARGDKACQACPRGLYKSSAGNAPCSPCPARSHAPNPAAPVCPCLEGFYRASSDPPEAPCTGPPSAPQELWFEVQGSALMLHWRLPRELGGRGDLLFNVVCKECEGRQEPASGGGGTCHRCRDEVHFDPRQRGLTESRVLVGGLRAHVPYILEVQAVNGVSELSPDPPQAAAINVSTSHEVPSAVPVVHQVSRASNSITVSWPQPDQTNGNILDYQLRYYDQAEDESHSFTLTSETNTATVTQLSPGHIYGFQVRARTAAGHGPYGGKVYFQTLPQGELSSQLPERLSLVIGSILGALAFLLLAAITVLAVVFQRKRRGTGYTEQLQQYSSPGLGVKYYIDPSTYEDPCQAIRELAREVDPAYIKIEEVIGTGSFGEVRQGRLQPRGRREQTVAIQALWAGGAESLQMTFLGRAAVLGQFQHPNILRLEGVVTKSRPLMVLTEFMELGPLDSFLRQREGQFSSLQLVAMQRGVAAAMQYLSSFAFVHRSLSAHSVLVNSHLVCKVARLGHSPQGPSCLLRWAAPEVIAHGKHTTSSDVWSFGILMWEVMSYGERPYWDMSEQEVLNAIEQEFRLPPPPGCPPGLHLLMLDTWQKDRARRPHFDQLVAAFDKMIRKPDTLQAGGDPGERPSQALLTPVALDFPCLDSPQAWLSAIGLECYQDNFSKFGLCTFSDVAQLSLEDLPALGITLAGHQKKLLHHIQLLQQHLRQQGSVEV
Experiment: biochemical
Parameters: species or system HEK293/K-562/placenta mixed human extract; Kinobeads chemoproteomic competition binding, quantified by TMT LC-MS/MS, dose response up to 20 uM
quantity.measured: pIC50
// returns pIC50 (minus log10 of molar concentration), number only

Read off the recorded pIC50 for "COc1nc(N[C@H]2CC[C@H](NS(=O)(=O)CC(C)C)CC2)nc2[nH]nc(N3CCOC[C@H]3C)c12"
5.48

* * *

Target: MAP4K3 (Homo sapiens, UniProt Q8IVH8)
Sequence (Q8IVH8 whole entry): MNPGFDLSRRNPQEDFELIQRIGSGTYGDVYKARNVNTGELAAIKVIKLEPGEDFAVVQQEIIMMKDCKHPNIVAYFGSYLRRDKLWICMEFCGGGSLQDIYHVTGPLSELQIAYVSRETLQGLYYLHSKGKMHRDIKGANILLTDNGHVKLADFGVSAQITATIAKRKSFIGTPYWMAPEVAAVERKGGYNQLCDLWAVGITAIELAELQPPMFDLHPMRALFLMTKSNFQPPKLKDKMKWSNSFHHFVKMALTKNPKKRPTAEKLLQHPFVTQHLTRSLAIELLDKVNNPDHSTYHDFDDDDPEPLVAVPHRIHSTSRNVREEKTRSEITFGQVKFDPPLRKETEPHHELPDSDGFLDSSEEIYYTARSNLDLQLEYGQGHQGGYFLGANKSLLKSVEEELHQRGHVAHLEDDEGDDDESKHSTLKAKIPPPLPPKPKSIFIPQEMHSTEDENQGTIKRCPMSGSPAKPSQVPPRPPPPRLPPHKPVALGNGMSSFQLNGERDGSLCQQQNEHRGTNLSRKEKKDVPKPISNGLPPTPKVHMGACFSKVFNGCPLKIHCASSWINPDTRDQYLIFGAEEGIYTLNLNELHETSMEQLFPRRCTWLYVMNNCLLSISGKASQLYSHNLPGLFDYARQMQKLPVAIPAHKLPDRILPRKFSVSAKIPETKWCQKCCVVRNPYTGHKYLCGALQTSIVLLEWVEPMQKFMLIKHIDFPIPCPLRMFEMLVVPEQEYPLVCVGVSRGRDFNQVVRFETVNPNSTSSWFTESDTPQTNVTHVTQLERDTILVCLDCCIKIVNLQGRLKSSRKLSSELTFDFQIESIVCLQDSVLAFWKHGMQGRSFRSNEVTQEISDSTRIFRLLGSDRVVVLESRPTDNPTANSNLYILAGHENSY
Assay: biochemical
Parameters: species or system HEK293/K-562/placenta mixed human extract; Kinobeads chemoproteomic competition binding, quantified by TMT LC-MS/MS, dose response up to 20 uM
pIC50: −log10 of the molar value.
quantity.measured: pIC50

Read off the recorded pIC50 for "COc1nc(N[C@H]2CC[C@H](NS(=O)(=O)CC(C)C)CC2)nc2[nH]nc(N3CCOC[C@H]3C)c12"
≤ 4.70

* * *

Target: MAP3K15 (Homo sapiens, UniProt Q6ZN16)
Assay: biochemical
Parameters: species or system HEK293/K-562/placenta mixed human extract; Kinobeads chemoproteomic competition binding, quantified by TMT LC-MS/MS, dose response up to 20 uM
quantity.measured: IC50

Enter measured IC50, system MAP3K15 (Homo sapiens, UniProt Q6ZN16), for the molecule shown: "COc1nc(N[C@H]2CC[C@H](NS(=O)(=O)CC(C)C)CC2)nc2[nH]nc(N3CCOC[C@H]3C)c12"
≥ 20 µM

* * *

Molecular target: NEK1 (Homo sapiens, UniProt Q96PY6)
Sequence (Q96PY6 1-1258): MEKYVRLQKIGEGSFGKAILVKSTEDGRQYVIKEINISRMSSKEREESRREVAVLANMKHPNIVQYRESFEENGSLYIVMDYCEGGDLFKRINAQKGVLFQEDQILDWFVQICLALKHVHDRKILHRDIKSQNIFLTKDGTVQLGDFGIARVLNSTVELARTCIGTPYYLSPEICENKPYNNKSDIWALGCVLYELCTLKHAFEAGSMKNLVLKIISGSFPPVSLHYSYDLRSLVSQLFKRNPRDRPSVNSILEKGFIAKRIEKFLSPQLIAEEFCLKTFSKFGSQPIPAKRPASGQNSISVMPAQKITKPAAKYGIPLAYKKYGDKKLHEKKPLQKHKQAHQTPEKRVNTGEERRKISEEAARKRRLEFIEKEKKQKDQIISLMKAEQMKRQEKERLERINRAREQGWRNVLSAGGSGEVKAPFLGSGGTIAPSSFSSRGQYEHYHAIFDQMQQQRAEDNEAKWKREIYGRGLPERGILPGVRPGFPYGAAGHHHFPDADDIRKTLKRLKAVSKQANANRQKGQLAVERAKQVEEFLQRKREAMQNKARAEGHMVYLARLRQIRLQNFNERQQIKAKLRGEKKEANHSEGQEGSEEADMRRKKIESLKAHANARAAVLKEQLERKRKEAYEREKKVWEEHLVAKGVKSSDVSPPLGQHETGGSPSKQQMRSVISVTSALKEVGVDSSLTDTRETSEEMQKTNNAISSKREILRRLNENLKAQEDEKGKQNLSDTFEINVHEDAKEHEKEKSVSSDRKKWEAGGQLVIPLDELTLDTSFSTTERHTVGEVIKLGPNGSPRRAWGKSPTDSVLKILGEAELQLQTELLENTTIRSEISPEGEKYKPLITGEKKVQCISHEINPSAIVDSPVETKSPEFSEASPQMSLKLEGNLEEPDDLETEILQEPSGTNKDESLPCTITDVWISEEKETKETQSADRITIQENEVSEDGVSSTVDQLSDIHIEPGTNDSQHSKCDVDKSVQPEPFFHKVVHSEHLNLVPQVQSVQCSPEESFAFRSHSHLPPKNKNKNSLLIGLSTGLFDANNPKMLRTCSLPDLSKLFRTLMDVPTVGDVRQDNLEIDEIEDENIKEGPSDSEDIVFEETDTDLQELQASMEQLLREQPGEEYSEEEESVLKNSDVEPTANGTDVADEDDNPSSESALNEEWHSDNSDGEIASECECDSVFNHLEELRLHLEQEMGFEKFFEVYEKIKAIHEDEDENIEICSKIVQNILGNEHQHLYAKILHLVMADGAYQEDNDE
Experiment: biochemical
Design: species or system HEK293/K-562/placenta mixed human extract; Kinobeads chemoproteomic competition binding, quantified by TMT LC-MS/MS, dose response up to 20 uM
quantity.measured: IC50

Enter measured IC50, system NEK1 (Homo sapiens, UniProt Q96PY6), for the compound shown: COc1ccccc1-c1n[nH]c2nc(N[C@H]3CC[C@H](NS(=O)(=O)CCC(F)(F)F)CC3)nc(OC)c12 [compound 31]
≥ 20 µM
